Test system: E. coli BW25113 overexpression strains (ASKA plasmids)
Assay: Minimum inhibitory concentration (MIC), serial broth dilution, single-gene overexpression strains vs empty-vector control
Type: cell-based, Escherichia coli
Settings: overexpression strain hyfA; MIC of overexpression strain / MIC of empty-plasmid control; broth dilution, MS medium, 100 µM IPTG, 30 °C, 20-24 h, OD600, 3 replicates
ASSAY ENDPOINT: Relative MIC
Numbers only.

Example sequences with recorded Relative MIC:
RESIDUES | SYSTEM TESTED | Relative MIC
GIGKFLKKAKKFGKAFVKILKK [PEX, Pexiganan, synthetic Magainin derivative; disrupts cell membrane; cluster C2] | E. coli BW25113 overexpression strains (ASKA plasmids) | 0.7
GIINTLQKYYRVRGGRAVLSLPKEEQIGKSTRGRKRRKK [HBD3, Human beta-defensin-3, human host-defense peptide; cluster C2] | E. coli BW25113 overexpression strains (ASKA plasmids) | 0.8

Please give Relative MIC, item by item, for the list that follows.
1. LLGDFFRKSKEKIGKEFKRIVQRIKDFLRNLVPRTES [LL37, LL-37 human cathelicidin, human host-defense peptide; disrupts cell membrane; cluster C2]
2. GLRKRLRKFRNKIKEKLKKIGQKIQGFVPKLAPRTDY [CAP18, antimicrobial peptide, source rabbit; disrupts cell membrane; cluster C3]

0.74
0.72

====

Consider the following sequences; for each one, report its Relative MIC.
Tested on: E. coli BW25113 overexpression strains (ASKA plasmids)
Assay: Minimum inhibitory concentration (MIC), serial broth dilution, single-gene overexpression strains vs empty-vector control
Assay type: cell-based, Escherichia coli
Details: overexpression strain rpoH; MIC of overexpression strain / MIC of empty-plasmid control; broth dilution, MS medium, 100 µM IPTG, 30 °C, 20-24 h, OD600, 3 replicates
One number for each entry.

Example sequences with recorded Relative MIC:
RESIDUES | SYSTEM TESTED | Relative MIC
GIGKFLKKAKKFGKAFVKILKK [PEX, Pexiganan, synthetic Magainin derivative; disrupts cell membrane; cluster C2] | E. coli BW25113 overexpression strains (ASKA plasmids) | 1.44
RFRPPIRRPPIRPPFYPPFRPPIRPPIFPPIRPPFRPPLGPFP [BAC5, Bactenecin 5, antimicrobial peptide from bovine neutrophils; cluster C4] | E. coli BW25113 overexpression strains (ASKA plasmids) | 0.8

Shift focus to the following entry.
Relative MIC lookup needed for ILPWKWPWWPWRR [IND, Indolicidin, antimicrobial peptide from bovine neutrophils; cluster C3] , thanks.
0.64

====

Consider the following sequences; for each one, report its Relative change in MIC (MIC of the AMP-adpated line / MIC of the ancestral strain).
Tested on: AMP-evolved E. coli lines
Test: Cross-resistance / collateral sensitivity: relative MIC change of 38 laboratory-evolved AMP-resistant lines vs parental strain
Assay type: cell-based, Escherichia coli
Details: AMP-adapted line LL37_6; measured here
One number for each entry.

Example sequences with recorded Relative change in MIC (MIC of the AMP-adpated line / MIC of the ancestral strain):
RESIDUES | MEASUREMENT
RRRPRPPYLPRPRPPPFFPPRLPPRIPPGFPPRFPPRFP [PR39, PR-39, cathelicidin, source pig; cluster C4] | 1.1
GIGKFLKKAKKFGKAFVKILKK [PEX, Pexiganan, synthetic Magainin derivative; disrupts cell membrane; cluster C2] | 1.22
TSSPPAAVVVRRRRRRRRRRRRRRRRRRR [PROA, Protamine, source herring, purchased from Sigma-Aldrich; cluster C3] | 0.48

Shift focus to the following entry.
Relative change in MIC (MIC of the AMP-adpated line / MIC of the ancestral strain) lookup needed for RFRPPIRRPPIRPPFYPPFRPPIRPPIFPPIRPPFRPPLGPFP [BAC5, Bactenecin 5, antimicrobial peptide from bovine neutrophils; cluster C4] , thanks.
0.915
